Values compiled from PubChem BioAssay (NCI).

Assay: NCI Yeast Anticancer Drug Screen. Data for the mec2-1 strain (AID 157)
Conditions: S. cerevisiae mec2-1 strain, at 50.0 µM, active compounds read high
Compounds without any hit were thinned out: in the full panel of roughly 79,000, 15% have a hit.
assayEndpoint: growth inhibition (%)
I only need the number, in %, no unit after it.

compound=O=C(Nc1ccccc1)n1cc(-c2ccccn2)c(N2CCOCC2)n1 measuredresult=-11.1
compound=C/C(=C\c1ccc(Cl)cc1)C(C)(C)C(=O)O measuredresult=-23.2
compound=COc1ccc(-c2nnc(N)o2)cc1OC measuredresult=-10.3

stdin: So what does the record say about growth inhibition for `Cc1cccc(C(=O)OCc2ccccc2CN2CCCCC2)c1` ?
stdout: -9.75

stdin: Field entry: `Nc1nnc(Cc2cccc3ccccc23)o1`
stdout: -11.4

stdin: Field entry: `Oc1ccccc1CN1CCOCC1`
stdout: 9.3

stdin: Field entry: O=S1(=O)CCC(N(N=C2CCCCC2)c2ccccc2)C1 (configuration not stated)
stdout: 98.3

stdin: Field entry: `CCOC(=O)C(=NNc1cc(OC)c(Cl)cc1OC)C(=O)OCC`
stdout: -9.95

stdin: Field entry: `Cc1cccc(C(=O)NNC(=O)c2ccc3ccccc3c2)c1`
stdout: -49.7

stdin: Field entry: `c1ccc(-c2nc(-c3ccccc3SSc3ccccc3-c3nc(-c4ccccc4)nn3-c3ccccc3)n(-c3ccccc3)n2)cc1`
stdout: -6.3

stdin: Field entry: `CCCCCCCCC1=C(CCCCCCC(=O)OC)[14CH2]1`
stdout: 16.6
